Reference for the values: the supplement of paper PMC11246515

assay: total protein half-life in vivo (active degradation + dilution); higher = more stable protein; conditions: E. coli NCM3722 delta-smpB; growth: N-lim chemostat; doubling time 6 h
quantityName: total protein half-life in vivo (h)
Supply the numeric figure in h, leaving out any unit text.

Please review the entries below; each comes with its answer.
{"sequenceInput": "MQFNIPTLLTLFRVILIPFFVLVFYLPVTWSPFAAALIFCVAAVTDWFDGFLARRWNQSTRFGAFLDPVADKVLVAIAMVLVTEHYHSWWVTLPAATMIAREIIISALREWMAELGKRSSVAVSWIGKVKTTAQMVALAWLLWRPNIWVEYAGIALFFVAAVLTLWSMLQYLSAARADLLDQ [P0ABF8]", "experimentalValue": 5.9}
{"sequenceInput": "MKHTVEVMIPEAEIKARIAELGRQITERYKDSGSDMVLVGLLRGSFMFMADLCREVQVSHEVDFMTASSYGSGMSTTRDVKILKDLDEDIRGKDVLIVEDIIDSGNTLSKVREILSLREPKSLAICTLLDKPSRREVNVPVEFIGFSIPDEFVVGYGIDYAQRYRHLPYIGKVILLDE [P0A9M2]", "experimentalValue": 4.08}
{"sequenceInput": "MRVLLAPMEGVLDSLVRELLTEVNDYDLCITEFVRVVDQLLPVKVFHRICPELQNASRTPSGTLVRVQLLGQFPQWLAENAARAVELGSWGVDLNCGCPSKTVNGSGGGATLLKDPELIYQGAKAMREAVPAHLPVSVKVRLGWDSGEKKFEIADAVQQAGATELVVHGRTKEQGYRAEHIDWQAIGDIRQRLNIPVIANGEIWDWQSAQQCMAISGCDAVMIGRGALNIPNLSRVVKYNEPRMPWPEVVALLQKYTRLEKQGDTGLYHVARIKQWLSYLRKEYDEATELFQHVRVLNNSPDIARAIQAIDIEKL", "experimentalValue": 4.76}
{"sequenceInput": "MKIAFIGEAVSGFGGMETVIRDVITTFRQQHIQSEMFFFCRNDKMDKGWLEGIKYSCSFSNIRLGFLRRAKHIHALSKWLQEYQPDIVICIDVISCLFAAKARKKSGIDMPVFSWPHFSLDHKKHAEYITCADYHLAISSGIKQQMINRGVAESTINVIFNPVETKDSVIPAPEEGETATFIYVGRMKFEGQKRVKDLLDGLSQAKGNWKLHVLGDGSDFEKCQAYGRELNIDDRIVWYGWQQYPWELVQQDIEKVSALLLTSSFEGFPMTLLEALSWGIPCISADCVSGPADIIQPDVNGHLYQPGDIAGFVTLLNKYIAGEIHIEHEKIPASIDEFYQSKYYDRLHKVIISAISRRK", "experimentalValue": 5.9}

Next, consider the following sequence.
Entry MPHNPIRVVVGPANYFSHPGSFNHLHDFFTDEQLSRAVWIYGKRAIAAAQTKLPPAFGLPGAKHILFRGHCSESDVQQLAAESGDDRSVVIGVGGGALLDTAKALARRLGLPFVAVPTIAATCAAWTPLSVWYNDAGQALHYEIFDDANFMVLVEPEIILNAPQQYLLAGIGDTLAKWYEAVVLAPQPETLPLTVRLGINNAQAIRDVLLNSSEQALSDQQNQQLTQSFCDVVDAIIAGGGMVGGLGDRFTRVAAAHAVHNGLTVLPQTEKFLHGTKVAYGILVQSALLGQDDVLAQLTGAYQRFHLPTTLAELEVDINNQAEIDKVIAHTLRPVESIHYLPVTLTPDTLRAAFKKVESFKA — recorded total protein half-life in vivo = 4.21

---

assay: total protein half-life in vivo (active degradation + dilution); higher = more stable protein; settings: wild type E. coli NCM3722; growth: P-lim chemostat; doubling time 6 h
Measured total protein half-life in vivo accompanies every entry in the list below.
Supply the numeric figure in h, leaving out any unit text.

Please review the entries below; each comes with its answer.
{"sequenceInput": "MQRETVWLVEDEQGIADTLVYMLQQEGFAVEVFERGLPVLDKARKQVPDVMILDVGLPDISGFELCRQLLALHPALPVLFLTARSEEVDRLLGLEIGADDYVAKPFSPREVCARVRTLLRRVKKFSTPSPVIRIGHFELNEPAAQISWFDTPLALTRYEFLLLKTLLKSPGRVWSRQQLMDSVWEDAQDTYDRTVDTHIKTLRAKLRAINPDLSPINTHRGMGYSLRGL", "total protein half-life in vivo / h": 4.04}
{"sequenceInput": "MAHIVTLNTPSREDWLTQLADVVTDPDELLRLLNIDAEEKLLAGRSAKKLFALRVPRSFIDRMEKGNPDDPLLRQVLTSQDEFVIAPGFSTDPLEEQHSVVPGLLHKYHNRALLLVKGGCAVNCRYCFRRHFPYAENQGNKRNWQTALEYVAAHPELDEMIFSGGDPLMAKDHELDWLLTQLEAIPHIKRLRIHSRLPIVIPARITEALVECFARSTLQILLVNHINHANEVDETFRQAMAKLRRVGVTLLNQSVLLRDVNDNAQTLANLSNALFDAGVMPYYLHVLDKVQGAAHFMVSDDEARQIMRELLTLVSGYLVPKLAREIGGEPSKTPLDLQLRQQ", "total protein half-life in vivo / h": 1.51}
{"sequenceInput": "MKRYTPDFPEMMRLCEMNFSQLRRLLPRNDAPGETVSYQVANAQYRLTIVESTRYTTLVTIEQTAPAISYWSLPSMTVRLYHDAMVAEVCSSQQIFRFKARYDYPNKKLHQRDEKHQINQFLADWLRYCLAHGAMAIPVY [P0ADU7]", "total protein half-life in vivo / h": 3.67}

Next, consider the following sequence.
Entry MRIFVYGSLRHKQGNSHWMTNAQLLGDFSIDNYQLYSLGHYPGAVPGNGTVHGEVYRIDNATLAELDALRTRGGEYARQLIQTPYGSAWMYVYQRPVDGLKLIESGDWLDRDK [P0AE48] — recorded total protein half-life in vivo = 5.27

---

Measured total protein half-life in vivo accompanies every entry in the list below.
assay: total protein half-life in vivo (active degradation + dilution); higher = more stable protein; conditions: wild type E. coli NCM3722; growth: C-lim chemostat; doubling time 6 h
Supply the numeric figure in h, leaving out any unit text.

{"sequenceInput": "MSKNYHIAVLPGDGIGPEVMTQALKVLDAVRNRFAMRITTSHYDVGGAAIDNHGQPLPPATVEGCEQADAVLFGSVGGPKWEHLPPDQQPERGALLPLRKHFKLFSNLRPAKLYQGLEAFCPLRADIAANGFDILCVRELTGGIYFGQPKGREGSGQYEKAFDTEVYHRFEIERIARIAFESARKRRHKVTSIDKANVLQSSILWREIVNEIATEYPDVELAHMYIDNATMQLIKDPSQFDVLLCSNLFGDILSDECAMITGSMGMLPSASLNEQGFGLYEPAGGSAPDIAGKNIANPIAQILSLALLLRYSLDADDAACAIERAINRALEEGIRTGDLARGAAAVSTDEMGDIIARYVAEGV", "total protein half-life in vivo [h]": 5.06}

Entry MVSRRVQALLDQLRAQGIQDEQVLNALAAVPREKFVDEAFEQKAWDNIALPIGQGQTISQPYMVARMTELLELTPQSRVLEIGTGSGYQTAILAHLVQHVCSVERIKGLQWQARRRLKNLDLHNVSTRHGDGWQGWQARAPFDAIIVTAAPPEIPTALMTQLDEGGILVLPVGEEHQYLKRVRRRGGEFIIDTVEAVRFVPLVKGELA [P0A7A5] — recorded total protein half-life in vivo = 4.83

Entry MTHDNKLQVEAIKRGTVIDHIPAQIGFKLLSLFKLTETDQRITIGLNLPSGEMGRKDLIKIENTFLSEDQVDQLALYAPQATVNRIDNYEVVGKSRPSLPERIDNVLVCPNSNCISHAEPVSSSFAVRKRANDIALKCKYCEKEFSHNVVLAN [P0A7F3] — recorded total protein half-life in vivo = 5.19

---

Measured total protein half-life in vivo accompanies every entry in the list below.
assay: total protein half-life in vivo (active degradation + dilution); higher = more stable protein; details: E. coli NCM3722 delta-clpP; growth: N-lim chemostat; doubling time 6 h
Supply the numeric figure in h, leaving out any unit text.

Please review the entries below; each comes with its answer.
{"sequenceInput": "MNKETQPIDRETLLKEANKIIREHEDTLAGIEATGVTQRNGVLVFTGDYFLDEQGLPTAKSTAVFNMFKHLAHVLSEKYHLVD [P0AB61]", "total protein half-life in vivo (h)": 3.59}
{"sequenceInput": "MDHRLLEIIACPVCNGKLWYNQEKQELICKLDNLAFPLRDGIPVLLETEARVLTADESKS [P0AAZ7]", "total protein half-life in vivo (h)": 5.82}
{"sequenceInput": "MQFNIPTLLTLFRVILIPFFVLVFYLPVTWSPFAAALIFCVAAVTDWFDGFLARRWNQSTRFGAFLDPVADKVLVAIAMVLVTEHYHSWWVTLPAATMIAREIIISALREWMAELGKRSSVAVSWIGKVKTTAQMVALAWLLWRPNIWVEYAGIALFFVAAVLTLWSMLQYLSAARADLLDQ [P0ABF8]", "total protein half-life in vivo (h)": 6.48}
{"sequenceInput": "MVKLPPLSLYIHIPWCVQKCPYCDFNSHALKGEVPHDDYVQHLLNDLDNDVAYAQGREVKTIFIGGGTPSLLSGPAMQTLLDGVRARLPLAADAEITMEANPGTVEADRFVDYQRAGVNRISIGVQSFSEEKLKRLGRIHGPQEAKRAAKLASGLGLRSFNLDLMHGLPDQSLEEALGDLRQAIELNPPHLSWYQLTIEPNTLFGSRPPVLPDDDALWDIFEQGHQLLTAAGYQQYETSAYAKPGYQCQHNLNYWRFGDYIGIGCGAHGKVTFPDGRILRTTKTRHPRGFMQGRYLESQRDVEATDKPFEFFMNRFRLLEAAPRVEFIAYTGLCEDVIRPQLDEAIAQGYLTECADYWQITEHGKLFLNSLLELFLAE", "total protein half-life in vivo (h)": 5.76}

Next, consider the following sequence.
Entry MSLTRLLIRDFRNIETADLALSPGFNFLVGANGSGKTSVLEAIYTLGHGRAFRSLQIGRVIRHEQEAFVLHGRLQGEERETAIGLTKDKQGDSKVRIDGTDGHKVAELAHLMPMQLITPEGFTLLNGGPKYRRAFLDWGCFHNEPGFFTAWSNLKRLLKQRNAALRQVTRYEQLRPWDKELIPLAEQISTWRAEYSAGIAADMADTCKQFLPEFSLTFSFQRGWEKETEYAEVLERNFERDRQLTYTAHGPHKADLRIRADGAPVEDTLSRGQLKLLMCALRLAQGEFLTRESGRRCLYLIDDFASELDDERRGLLASRLKATQSQVFVSAISAEHVIDMSDENSKMFTVEKGKITD [P0A7H0] — recorded total protein half-life in vivo = 4.43
